IC50 values by entry
Biological target: CCR4 (Homo sapiens (Human))
Sequence (P51679 whole entry): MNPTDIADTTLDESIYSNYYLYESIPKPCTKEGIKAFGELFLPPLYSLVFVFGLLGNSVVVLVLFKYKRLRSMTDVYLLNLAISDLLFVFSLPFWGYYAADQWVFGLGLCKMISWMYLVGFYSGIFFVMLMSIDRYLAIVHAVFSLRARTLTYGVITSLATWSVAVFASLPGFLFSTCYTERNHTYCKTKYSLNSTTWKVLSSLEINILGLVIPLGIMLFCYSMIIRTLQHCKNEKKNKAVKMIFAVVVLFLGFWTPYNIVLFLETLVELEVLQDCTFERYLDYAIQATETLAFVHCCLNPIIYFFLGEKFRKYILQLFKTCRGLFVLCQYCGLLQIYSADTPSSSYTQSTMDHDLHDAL
Experiment: Calcium mobilization (Ca Flux) assay
Assay type: cell-based
Structures can show the parent of a compound that is named as a salt.

Consider the following illustrative entries.
Cc1nn([C@H](C)c2ccc(Cl)cc2Cl)c2nc(N3CCC(N4CCC[C@H]4CC(F)C(=O)O)C(C)C3)cnc12 (single isomer, unassigned) [Example 57] : > 500 nM
Cc1nn([C@H](C)c2ccc(Cl)cc2Cl)c2nc(N3CCC(N4CCC[C@@H]4C)C(C)C3)cnc12 (stereo partly drawn) [Example 21, hydrochloride] : > 500 nM
C[C@@H]1CN(c2cnc3c(C#N)nn([C@H](C)c4ccc(Cl)cc4F)c3n2)CC[C@@H]1N1CCC[C@H]1CCC(=O)O : < 100 nM
C[C@@H]1CC(c2cnc3c(C#N)nn([C@H](C)c4ccc(Cl)cc4Cl)c3n2)=CC[C@@H]1N1CCC[C@H]1CN [Example 81, hydrochloride] : 100 to 500 nM
CCC1CN(c2cnc3c(C(N)=O)nn(C(C)c4ccc(Cl)cc4Cl)c3n2)CCC1N1CCCCC1 (stereo not drawn) [Example 6, hydrochloride] : 100 to 500 nM

Lab book: IC50 of Cc1nn([C@H](C)c2ccc(Cl)cc2Cl)c2nc(N3CC[C@@H](N4CCC[C@@H](CCC(=O)O)C4)[C@@H](C)C3)cnc12 [Example 40, 2,2,2-trifluoroacetate] noted as > 500 nM

IC50 measured on CC(c1ccc(Cl)cc1Cl)n1nc(C#N)c2ncc(N3CCC(N4CCCCC4)C(F)C3)nc21 (stereo not drawn) [Example 26, 2,2,2-trifluoroacetate] = > 500 nM

The compound identified as Cc1nn([C@H](C)c2ccc(Cl)cc2Cl)c2nc(N3CCC(N4CCC(F)CC4)C(C)C3)cnc12 (stereo partly drawn) [Example 61, hydrochloride] registered its IC50 at 100 to 500 nM

# compound CC(c1ccc(Cl)cc1Cl)n1nc(C(N)=O)c2ncc(N3CCC(N4CCCCC4)C(F)C3)nc21 (stereo not drawn) [Example 25, hydrochloride] ; its IC50 = 100 to 500 nM

// sample Cc1nn([C@H](C)c2ccc(Cl)cc2Cl)c2nc(N3CCC(N4CCC[C@H]4CC(O)C(=O)O)C(C)C3)cnc12 (stereo partly drawn) [Example 59, 2,2,2-trifluoroacetate] , its IC50 was 100 to 500 nM

C[C@@H]1CC(c2cnc3c(C#N)nn([C@H](C)c4ccc(Cl)cc4Cl)c3n2)=CCC1N1CCC[C@H]1C(O)CS(C)(=O)=O (stereo partly drawn) [Example 87, hydrochloride] has a reported IC50 of < 100 nM

For CC1CN(c2cnc3c(C(N)=O)nn([C@H](C)c4ccc(Cl)cc4Cl)c3n2)CCC1N1CCCCC1 (stereo partly drawn) [Example 5, 2,2,2-trifluoroacetate] the compound record lists IC50 as 100 to 500 nM
